Target: Human TRPC6 (Homo sapiens)
Construct: expressed in transfected cells
Assay: Evaluation of TRPC6 channel inhibitory activity (1), FLIPR Calcium 5 Assay Kit, OAG stimulation (Compound Nos. 1-1293)
Type: cell-based
Conditions: Human TRPC6 stably-expressing cells, OAG 30 μM, FLIPR Calcium 5 Assay Kit; read-out: Inhibitory activity (pIC50 class) (converted)
recorded.endpoint: IC50

1. Cn1nc(-c2ccccn2)cc1Oc1cc(C#N)ccc1-c1cc(CCN)ccn1    < 0.01 µM
2. Cn1nc(-c2ccccc2)cc1Oc1cc(C#N)ccc1-c1ccc(CN)cn1    < 0.01 µM
3. N#Cc1ccc(-c2ccc(CCN)cc2)c(Sc2cnnc(N3CCOCC3)c2)c1    < 0.01 µM
4. Cc1c(C(=O)c2cc(C#N)ccc2-c2ncc(CCN)cn2)cnn1CC1CC1    0.01 to 1 µM

---

Target: Human TRPC6 (Homo sapiens, UniProt Q9Y210)
Construct: expressed in transfected cells
Assay: Evaluation of TRPC6 channel inhibitory activity (1), FLIPR Calcium 5 Assay Kit, OAG stimulation (Compound Nos. 1-1293)
Assay type: cell-based
Conditions: Human TRPC6 stably-expressing cells, OAG 30 μM, FLIPR Calcium 5 Assay Kit; read-out: Inhibitory activity (pIC50 class) (converted)
Procedure: Evaluation of TRPC6 Channel Inhibitory Activity (1) (Compound Nos. 1-1293) In order to investigate TRPC6 channel inhibitory activity of the compounds, evaluation was conducted using FLIPR® Calcium 5 Assay Kit (Molecular Devices) in accordance with the following procedure. […] A volume of 12.5 μL of a compound solution was added into each well while the fluorescence was measured with FLIPR tetra. […]
recorded.endpoint: IC50

1) Cn1nc(-c2ccccc2)cc1Oc1cc(C#N)ccc1-c1ccc(C(N)C(N)=O)cn1 (centres unmarked) [compound 516]    > 1000 nM
2) N#Cc1ccc(-c2ncc(CN)cn2)c(C(=O)c2cnn(-c3ccncn3)c2)c1 [compound 1055]    > 1000 nM
3) Cc1cc(Oc2cc(C#N)ccc2-c2ccc(C3(F)CNC3)cn2)cc(N2CCOCC2)n1 [compound 538]    10 to 1000 nM
4) N#Cc1ccc(-c2ncc(CN)cn2)c(Oc2nnc(N3CCCCC3)s2)c1 [compound 707]    10 to 1000 nM
5) Cn1nc(-c2ccccn2)cc1Oc1cc(C#N)cnc1-c1ccc(CN)cc1 [compound 1288]    > 1000 nM
6) Cc1nc(Sc2cc(C#N)ccc2-c2ccc(CCN)cn2)cc(N2CCCCC2)n1 [compound 1249]    < 10 nM
7) CCN(CC(F)F)c1cc(Oc2cc(F)ccc2-c2ncc(CN)cn2)n(C)n1 [compound 994]    10 to 1000 nM
8) CC(C)Cn1cc(Oc2cc(C#N)ccc2-c2ncc(CN)cn2)cn1 [compound 908]    < 10 nM

---

Target: Human TRPC6 (Homo sapiens, UniProt Q9Y210)
Construct: expressed in transfected cells
Assay: Evaluation of TRPC6 channel inhibitory activity (1), FLIPR Calcium 5 Assay Kit, OAG stimulation (Compound Nos. 1-1293)
Assay type: cell-based
Settings: Human TRPC6 stably-expressing cells, OAG 30 μM, FLIPR Calcium 5 Assay Kit; read-out: Inhibitory activity (pIC50 class) (converted)
recorded.endpoint: IC50

1. Cc1cc(Oc2cc(C#N)ccc2-c2ccc(CC(C)(C)NCC(=O)N(C)C)cn2)cc(N2CCOCC2)n1 [compound 840]    > 1000 nM
2. Cn1cc(C(=O)c2cc(F)ccc2-c2ncc(CCN)cn2)cn1 [compound 1100]    > 1000 nM
3. N#Cc1ccc(-c2ccc(CCN)cc2)c(C(=O)c2nnc(N3CCOCC3)o2)c1 [compound 1086]    < 10 nM
4. Cc1c(Oc2cc(C#N)ccc2-c2ncc(CN)cn2)cnn1-c1ccccn1 [compound 831]    > 1000 nM
5. N#Cc1ccc(-n2cc(CCN)cn2)c(Oc2cnnc(N3CCCC3)c2)c1 [Compound 284]    10 to 1000 nM
6. N#Cc1ccc(-c2ncc(CN)cn2)c(C(=O)c2cnn(CC3CC3)c2)c1 [compound 1047]    < 10 nM
7. N#Cc1ccc(-c2ncc(CCN)cn2)c(Oc2nnc(C3CC3)s2)c1 [compound 728]    10 to 1000 nM
8. N#Cc1ccc(-c2ncc(CCN)cn2)c(Cn2ncc(-c3ccccc3)n2)c1 [compound 1169]    > 1000 nM

---

Target: Human TRPC6 (Homo sapiens, UniProt Q9Y210)
Construct: expressed in transfected cells
Assay: Evaluation of TRPC6 channel inhibitory activity (1), FLIPR Calcium 5 Assay Kit, OAG stimulation (Compound Nos. 1-1293)
Format: cell-based
Conditions: Human TRPC6 stably-expressing cells, OAG 30 μM, FLIPR Calcium 5 Assay Kit; read-out: Inhibitory activity (pIC50 class) (converted)
recorded.endpoint: IC50

1) Cn1nc(C2CCOCC2)cc1Oc1cc(F)ccc1-c1ccc(CN)cn1    10 to 1000 nM
2) Cc1cc(Oc2cc(C#N)ccc2-c2ncc([C@H](O)CN)cn2)cc(-c2ncc(C)s2)n1    10 to 1000 nM
3) Cc1nc(Oc2cc(C#N)ccc2-n2cc([C@@H](O)CN)cn2)cc(OC2CCCC2)n1    10 to 1000 nM
4) CCN(c1cc(Oc2cc(C#N)ccc2-c2ncc(CCN)cn2)n(C)n1)C(C)C    < 10 nM
5) Cc1cc(Oc2cc(C#N)ccc2-c2ncc(CCN)cn2)cc(N2CCN(C)C(=O)C2)n1    > 1000 nM
6) Cc1nc(-c2cncc(F)c2)cn1Cc1cc(C#N)ccc1-c1ncc(CCN)cn1    > 1000 nM
7) NCc1cnc(-c2ccc(F)cc2C(=O)c2cnn(CC(F)F)c2)nc1    > 1000 nM
8) Cc1nc(Oc2cc(C#N)ccc2-n2cc([C@@H](O)CN)cn2)cc(OC2CCCCC2)n1    < 10 nM

---

Target: Human TRPC6 (Homo sapiens)
Construct: expressed in transfected cells
Sequence (Q9Y210 1-931): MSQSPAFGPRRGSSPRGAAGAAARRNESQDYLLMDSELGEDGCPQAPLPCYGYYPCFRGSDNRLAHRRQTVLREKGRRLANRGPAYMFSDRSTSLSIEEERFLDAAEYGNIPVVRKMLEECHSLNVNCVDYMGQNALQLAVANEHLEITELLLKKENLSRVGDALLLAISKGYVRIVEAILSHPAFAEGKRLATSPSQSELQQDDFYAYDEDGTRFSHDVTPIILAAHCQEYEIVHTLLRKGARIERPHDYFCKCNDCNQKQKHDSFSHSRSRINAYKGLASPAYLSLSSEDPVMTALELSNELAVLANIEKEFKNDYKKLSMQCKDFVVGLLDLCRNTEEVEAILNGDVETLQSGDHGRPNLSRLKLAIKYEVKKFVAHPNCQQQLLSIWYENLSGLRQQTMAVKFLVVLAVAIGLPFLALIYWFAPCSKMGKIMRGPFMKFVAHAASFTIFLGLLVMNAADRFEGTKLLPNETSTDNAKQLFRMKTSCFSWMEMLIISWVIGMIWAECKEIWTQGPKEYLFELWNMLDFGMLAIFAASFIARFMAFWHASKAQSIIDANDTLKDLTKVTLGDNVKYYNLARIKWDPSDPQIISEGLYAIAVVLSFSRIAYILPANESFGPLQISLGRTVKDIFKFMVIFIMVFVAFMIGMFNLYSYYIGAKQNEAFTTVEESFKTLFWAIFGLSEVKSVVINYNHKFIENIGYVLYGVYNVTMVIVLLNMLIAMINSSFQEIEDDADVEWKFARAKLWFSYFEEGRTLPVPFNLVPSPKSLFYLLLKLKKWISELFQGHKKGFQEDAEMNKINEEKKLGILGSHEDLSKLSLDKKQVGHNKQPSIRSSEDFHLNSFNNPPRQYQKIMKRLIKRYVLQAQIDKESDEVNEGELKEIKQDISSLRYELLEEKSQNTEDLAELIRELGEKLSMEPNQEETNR
Test: Evaluation of TRPC6 channel inhibitory activity (1), FLIPR Calcium 5 Assay Kit, OAG stimulation (Compound Nos. 1-1293)
Type: cell-based
Conditions: Human TRPC6 stably-expressing cells, OAG 30 μM, FLIPR Calcium 5 Assay Kit; read-out: Inhibitory activity (pIC50 class) (converted)
recorded.endpoint: IC50

1) Cc1c(Oc2cc(F)ccc2-c2ncc(CCN)cn2)cnn1C(C)C [compound 984]    10 to 1000 nM
2) CC(N)c1cnc(-c2ccc(C#N)cc2Oc2cc(-c3ccccn3)nn2C)nc1 (centres unmarked) [compound 702]    < 10 nM
3) Cn1nc(-c2ccccc2)cc1Oc1nc(Cl)ccc1-c1ccc(CCN)cn1 [compound 1292]    10 to 1000 nM
4) Cn1nc(N2CCCC2)cc1Oc1cc(C#N)ccc1-c1ncc(CN)cn1 [compound 625]    < 10 nM
5) Cn1nc(C2CC2)cc1Oc1cc(F)ccc1-c1ncc(CCN)cn1 [compound 1017]    < 10 nM
6) Cc1nc(Oc2cc(C#N)ccc2-c2ncc(CCN)cn2)cc(N2CCC2=O)n1 [compound 855]    10 to 1000 nM
7) Cc1cc(Oc2cc(C#N)ccc2-c2ccc(OCCN)cn2)cc(N2CCOCC2)n1 [compound 350]    10 to 1000 nM
8) Cc1cc(Oc2cc(C#N)ccc2-c2ncc([C@H](O)CN)cn2)cc(-c2nc(C)cs2)n1 [compound 600]    10 to 1000 nM
